Recorded values, source PubChem BioAssay AID1578.

- assayText: NOD1 signaling inhibitors, primary screen, cell-based, luminescence, uHTS (AID 1578);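 further: HEK-293T reporter cells stimulated with the NOD1 agonist gamma-tri-DAP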
- conditionsUsed: NOD1-driven NF-kB luciferase reporter cells, at 4 µM, active compounds read high
The whole screen tested about 290,000 compounds, of which about 3,000 (1%) were called active. Shown is part of a subset that was picked to be rich in actives.
Items are presented alongside their recorded inhibition.
Record the value in %, omitting the unit from your answer.

These solved cases illustrate the format of a correct answer.
O=[N+]([O-])c1ccc(-c2cnc3ccccc3n2)cc1    -42.9
Cc1ccc(C(O)c2nc3ccccc3n2C)cc1 (configuration not stated)    -7.9
CN(C)c1c(F)cc(C(=O)NC(=O)NCc2cccnc2)cc1F    -15
CC(C)c1ccc(C(O)c2nc3ccccc3n2C)cc1 (configuration not stated)    76.4
Cc1cc(Br)ccc1OCCCCNCCO    -40.2
COc1ccc(CNS(=O)(=O)c2ccccc2Br)cc1    3.1

Looking for the measured inhibition of CCCC(=O)NC(C)c1nc2ccccc2n1CC (configuration not stated) , can you help?
-18.7

Looking for the measured inhibition of `Cc1cc(-c2ccc([N+](=O)[O-])cc2)nc2ccccc12` , can you help?
-26.6

Looking for the measured inhibition of COc1ccc2nc(C)cc(N3CC(C)OC(C)C3)c2c1 (configuration not stated) , can you help?
8.1

Looking for the measured inhibition of `O=C(CSCc1cnn(-c2ccccc2)c1-n1cccc1)NCc1ccccn1` , can you help?
-18.4

Looking for the measured inhibition of `COc1ccc(C(=O)N/C(=C\c2cccs2)C(=O)N2CCN(C)CC2)cc1OC` , can you help?
-14.2

Looking for the measured inhibition of CCCC(=O)NC(C)c1nc2ccccc2n1C (configuration not stated) , can you help?
36.2

---

- assayText: NOD1 signaling inhibitors, primary screen, cell-based, luminescence, uHTS (AID 1578);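 further: HEK-293T reporter cells stimulated with the NOD1 agonist gamma-tri-DAP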
- conditionsUsed: NOD1-driven NF-kB luciferase reporter cells, at 4 µM, active compounds read high
In all, about 290,000 compounds went through this assay and about 3,000 (1%) were called active. The full list was thinned out, with actives kept by preference.
Items are presented alongside their recorded inhibition.
Record the value in %, omitting the unit from your answer.

COc1ccccc1N1CCN(c2ccc([N+](=O)[O-])cc2Cl)CC1    7.1
COCCNC(=O)c1ccc(C)c(NC(=O)C2=C(C)OCCS2)c1    -9.9
Cc1ccccc1C(=O)Nc1ccnn1C1CCN(C2CCSCC2)CC1    -16.1
COC(=O)N(NC(=O)C(O)(c1ccccc1)c1ccccc1)c1ccc(C)cc1    -13
CCN(CC)NC(=O)Nc1ccccc1    1.7

Now for the molecule whose inhibition we want.
Looking for the measured inhibition of CCOc1ccccc1C(=O)N(Cc1sccc1C)C1CCS(=O)(=O)C1 (stereo unspecified) , can you help?
-17.4

---

Items are presented alongside their recorded inhibition.
- assayText: NOD1 signaling inhibitors, primary screen, cell-based, luminescence, uHTS (AID 1578);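 further: HEK-293T reporter cells stimulated with the NOD1 agonist gamma-tri-DAP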
- conditionsUsed: NOD1-driven NF-kB luciferase reporter cells, at 4 µM, active compounds read high
About 3,000 (1%) of roughly 290,000 compounds were called active. The sample as a whole holds a higher share of actives than the screen did.
Record the value in %, omitting the unit from your answer.

Looking for the measured inhibition of `COc1cc(/C=N/Nc2cccc3cccnc23)cc(OC)c1O` , can you help?
50.8

Looking for the measured inhibition of `O=C(O)CSc1c2c(nc3cc(C(=O)NCCN4CCOCC4)ccc13)CCC2` , can you help?
91.8

Looking for the measured inhibition of `COc1cc(/C=N/Nc2ccccn2)cc(OC)c1O` , can you help?
46.4

Looking for the measured inhibition of `CC(C)CCNC(=O)c1ccc2c(SCC(=O)O)c3c(nc2c1)CCCC3` , can you help?
-29.5

Looking for the measured inhibition of `Cc1ccc2occ(/C=N/NC(=O)c3ccccc3O)c(=O)c2c1` , can you help?
-14.7

Looking for the measured inhibition of `O=[N+]([O-])c1cc(Cl)cc(/C=N/Nc2nc3ccccc3s2)c1O` , can you help?
1.6

Looking for the measured inhibition of `C=CCn1cnc2c(nnn2-c2ccc(C)c(C)c2)c1=O` , can you help?
-34.3

Looking for the measured inhibition of `C[C@@H](CN=[N+]=[N-])CN1CC[C@H](C(C)(C)C)CCC1=O` , can you help?
-15.8

Looking for the measured inhibition of `CC(C)CCNC(=O)c1ccc2c(SCC(=O)O)c3c(nc2c1)CCC3` , can you help?
0.8

Looking for the measured inhibition of `O=C(Cn1c(=O)oc2ccccc21)NC(=O)NCc1ccco1` , can you help?
-3.9

Looking for the measured inhibition of `OC(CC#CCN1CCCCC1)(c1ccccc1)c1ccccc1` , can you help?
-4.1
